Measured values drawn from patent US20250333523A1 for this set.

# assayed-target: T1, Avi/HisMsIL18BPd (recombinant mouse IL-18BP with Avi and poly-His tags) (mouse, biotinylated with BirA on the Avi tag in some assays)
# T1 chain: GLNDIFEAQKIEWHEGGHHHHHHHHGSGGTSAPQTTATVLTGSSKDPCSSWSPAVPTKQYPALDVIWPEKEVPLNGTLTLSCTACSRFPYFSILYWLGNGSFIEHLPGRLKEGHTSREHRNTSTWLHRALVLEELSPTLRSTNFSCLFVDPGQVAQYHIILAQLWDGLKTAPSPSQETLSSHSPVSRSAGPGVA
# protocol-text: cell-based or functional assay
quantity-kind: EC50 of IFNγ release, mouse splenocytes (nM)
Write down the numeric answer in nM and omit the unit.

binder: anti-IL18BP antibody BP-16 (antibody, human IgG1, V domains shown) VH: QVQLVQSGAEVKKPGASVKVSCKASGYTFTTYDINWVRQAPGQGLEWMGIIGSYGGATSYAQKFQGRVTMTRDTSTSTVYMELSSLRSEDTAVYYCATAEEELRFDYWGQGTLVTVSS VL: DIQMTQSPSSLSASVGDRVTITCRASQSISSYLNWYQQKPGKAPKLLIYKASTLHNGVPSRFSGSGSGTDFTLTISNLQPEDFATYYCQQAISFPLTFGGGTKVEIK
observed: 3.08

Prompt: Look up EC50 of IFNγ release, mouse splenocytes for this binder: anti-IL18BP antibody BP-05 (antibody, human IgG1, V domains shown) VH: EVQLQQSGPELVKPGASVKIPCKASGYTFTDYNMDWVKQSHGKSLEWIGNINTNNGGTVYNQKFKDKATLTVDKSSSTAYMELRSLTSEDTAVYYCARSDTTVVASRYYALDYWGQGTSVTVSS VL: DIVLTQSPASLAMSLGKRATISCRASESVSIIGTDLIHWYQQKPGQPPKLLIYHASNLETGVPARFSGSGSRTDFTLTIDPVEEDDVAIYYCLQSRKIPPTFGGGTKLEIK
Completion: 2.94

Prompt: Next up: anti-IL18BP antibody BP-01 (antibody, human IgG1, V domains shown) VH: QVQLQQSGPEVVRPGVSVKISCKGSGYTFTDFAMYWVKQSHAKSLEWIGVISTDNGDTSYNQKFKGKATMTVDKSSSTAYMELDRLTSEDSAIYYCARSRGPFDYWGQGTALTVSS VL: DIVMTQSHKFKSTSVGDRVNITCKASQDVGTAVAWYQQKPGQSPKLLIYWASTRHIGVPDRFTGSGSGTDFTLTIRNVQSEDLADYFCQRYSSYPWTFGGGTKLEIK
Completion: 8.36
